Data origin: PubChem BioAssay AID709

# ASSAY_EXPLANATION: intrinsic fluorescence of library compounds, ex339/em460 – biochemical, MLSMR library, data from DPM-DC assay, artefact control, profiling panel (AID 709);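 further: signal is the first read of a kinetic run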
# TEST_SETTINGS: compound autofluorescence, ex339/em460 nm, NADH buffer; at 10 µM; stronger effect = higher value; 1 = no-compound wells, NADH background
The campaign covered roughly 65,000 compounds. About 3,600 (5.5%) were called active. The entries come from a sample that favours actives as a whole.
// reported fluorescence fold increase per item
Just the number.

- C=C(C)Cn1c(SCC(=O)NCc2ccco2)nc2sc3c(c2c1=O)CCC3: 1.09
- N#Cc1c2c(c(N3CCN(CCO)CC3)n3c1nc1ccccc13)CCCC2: 1.53
- CCOC(=O)c1cc2occc2n1CC(=O)NC1CCC(C)CC1 (stereo not given): 1.03
- COc1ccccc1NC(=O)CN1CCN(S(=O)(=O)c2ccc(Br)cc2)CC1: 1
- COc1ccccc1N1CCN(C(=O)Cn2nnc(-c3cccs3)n2)CC1: 1.07

Now for another entry.
So what's the measured fluorescence fold increase for this one? `COc1ccc(N2CCN(C(=O)CSc3nc4cc(OC)c(OC)cc4cc3C#N)CC2)cc1` 1.03

====

// reported fluorescence fold increase per item
# ASSAY_EXPLANATION: intrinsic fluorescence of library compounds, ex339/em460 – biochemical, MLSMR library, data from DPM-DC assay, artefact control, profiling panel (AID 709);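 further: signal is the first read of a kinetic run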
# TEST_SETTINGS: compound autofluorescence, ex339/em460 nm, NADH buffer; at 10 µM; stronger effect = higher value; 1 = no-compound wells, NADH background
The campaign covered roughly 65,000 compounds. About 3,600 (5.5%) were called active. Shown is part of a subset that was picked to be rich in actives.
Just the number.

So what's the measured fluorescence fold increase for this one? `CCOc1cc(C2C(C(=O)OC)=CN(C3CCCC3)C=C2C(=O)OC)cc(Br)c1O` 2.88

====

# ASSAY_EXPLANATION: intrinsic fluorescence of library compounds, ex339/em460 – biochemical, MLSMR library, data from DPM-DC assay, artefact control, profiling panel (AID 709);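 further: signal is the first read of a kinetic run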
# TEST_SETTINGS: compound autofluorescence, ex339/em460 nm, NADH buffer; at 10 µM; stronger effect = higher value; 1 = no-compound wells, NADH background
Hit rate of the full screen: of about 65,000 compounds, about 3,600 (5.5%) were called active. The sample as a whole holds a higher share of actives than the screen did.
// reported fluorescence fold increase per item
Just the number.

Please review the following examples before continuing.
* Cc1cc(NCc2ccco2)n2c(nc3ccccc32)c1C#N | 2.23
* Cc1ccc(C(=O)Nc2nnc(-c3ccncc3)s2)o1 | 2.14
* CN1CCN(CCCNC(=O)c2cc3c(=O)oc4ccccc4c3s2)CC1 | 1.53
* Cn1c(CCN2CCCCCC2)nc2cc(NC(=O)Nc3ccccc3)ccc21 | 1.24
* CNC(=O)c1cc2c(ccc3ccccc32)oc1=N | 2.32

So what's the measured fluorescence fold increase for this one? C=CCSc1nc2c(c(=O)[nH]1)C(C(C)C)C(C#N)=C(N)O2 (stereo not drawn) 1.06

So what's the measured fluorescence fold increase for this one? CC(=NCC1CCCO1)c1c(O)[nH]c(=O)[nH]c1=O (stereo not drawn) 1.14

So what's the measured fluorescence fold increase for this one? `COCCNC(=O)c1snc2ccc(Cl)cc12` 1.2

So what's the measured fluorescence fold increase for this one? `O=C(Nc1ccc(NC(=O)c2cccs2)cn1)c1ccco1` 1.08

So what's the measured fluorescence fold increase for this one? CC12CCC(C(=O)N(CCC#N)CCC#N)(CC1=O)C2(C)C (stereo not drawn) 1.07

So what's the measured fluorescence fold increase for this one? O=C1C(C=NCC2CCCO2)=C(O)c2ccccc21 (stereo not drawn) 1.09

So what's the measured fluorescence fold increase for this one? `COC(=O)c1sc(=S)n(-c2ccccc2)c1N` 1.02

So what's the measured fluorescence fold increase for this one? `COc1ccc(-c2ccnc(SCC(=O)N3CCOCC3)n2)cc1` 1.54

So what's the measured fluorescence fold increase for this one? COc1ccc(N2C(=O)CCC(C(=O)Nc3ccccn3)C2c2ccc(OC)c(OC)c2)cc1 (stereo not drawn) 0.92

So what's the measured fluorescence fold increase for this one? `Cc1occc1C(=O)Nc1nnc(-c2ccncc2)s1` 2.2

So what's the measured fluorescence fold increase for this one? `CCOC(=O)c1cc2cc(-c3c(C(=O)OCC)oc4cc(O)cc(O)c4c3=O)ccc2o1` 1.11

So what's the measured fluorescence fold increase for this one? `COc1ccccc1N1CCN(C(=O)c2cc3c(-c4ccc(Cl)cc4)nn(C)c3s2)CC1` 1.07

So what's the measured fluorescence fold increase for this one? `O=S(=O)(O)c1nc2ccccc2n1Cc1ccc(Cl)cc1` 1.22

====

# ASSAY_EXPLANATION: intrinsic fluorescence of library compounds, ex339/em460 – biochemical, MLSMR library, data from DPM-DC assay, artefact control, profiling panel (AID 709);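 further: signal is the first read of a kinetic run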
# TEST_SETTINGS: compound autofluorescence, ex339/em460 nm, NADH buffer; at 10 µM; stronger effect = higher value; 1 = no-compound wells, NADH background
The whole screen tested about 65,000 compounds, of which about 3,600 (5.5%) were called active. The sample holds actives, similar compounds and a random draw of the others, so the mix is not that of the screen.
MEASUREMENT_LABEL: fluorescence fold increase
Just the number.

Please review the following examples before continuing.
• CCOc1ccccc1C1C(C(=O)OC)=CN(C)C=C1C(=O)OC = 4.81
• CCc1ccc(Nc2ncc3c(n2)CC(c2ccco2)CC3=O)cc1 (centres undefined) = 2.39
• O=C(NCc1ccc(Cl)c(Cl)c1)c1cccnc1 = 0.91
• CCC(c1nnnn1Cc1ccco1)N(Cc1cc2cc(OC)ccc2[nH]c1=O)C1CCCCC1 (centres undefined) = 1.39

So what's the measured fluorescence fold increase for this one? `N#C/C=C1\Sc2ccccc2C(=O)N1CC(=O)N1CCN(S(=O)(=O)c2ccccc2)CC1` 1.1

====

// reported fluorescence fold increase per item
# ASSAY_EXPLANATION: intrinsic fluorescence of library compounds, ex339/em460 – biochemical, MLSMR library, data from DPM-DC assay, artefact control, profiling panel (AID 709);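 further: signal is the first read of a kinetic run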
# TEST_SETTINGS: compound autofluorescence, ex339/em460 nm, NADH buffer; at 10 µM; stronger effect = higher value; 1 = no-compound wells, NADH background
The whole screen tested about 65,000 compounds, of which about 3,600 (5.5%) were called active. The sample as a whole holds a higher share of actives than the screen did.

* Cc1ccc(S(=O)(=O)Nc2ccc3ncccc3c2)cc1 | 1.18 (inactive)

So what's the measured fluorescence fold increase for this one? `COCCCNC(=O)c1c(F)c(F)c(F)c(F)c1F` 1.04 (inactive)

So what's the measured fluorescence fold increase for this one? `Cc1cc(/C=N/n2cnnc2)c(C)n1-c1ccc2ncccc2c1` 1.05 (inactive)

So what's the measured fluorescence fold increase for this one? CO/N=C(\C(=O)N[C@@H]1C(=O)N2C(C(=O)O)=C(COC(C)=O)CS[C@H]12)c1csc(N)n1 (stereo in doubt) 1.08 (inactive)

So what's the measured fluorescence fold increase for this one? `O=C1C=C(NCCNc2c(F)c(F)c(CO)c(F)c2F)CCC1` 1.14 (inactive)

So what's the measured fluorescence fold increase for this one? `O=C(NCc1cccs1)c1ccc2c(c1)ncn2C1CCCC1` 1.03 (inactive)

So what's the measured fluorescence fold increase for this one? `COC(=O)COc1ccc(S(=O)(=O)Nc2ccc(NC(C)=O)cc2)cc1` 1.1 (inactive)

====

# ASSAY_EXPLANATION: intrinsic fluorescence of library compounds, ex339/em460 – biochemical, MLSMR library, data from DPM-DC assay, artefact control, profiling panel (AID 709);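 further: signal is the first read of a kinetic run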
# TEST_SETTINGS: compound autofluorescence, ex339/em460 nm, NADH buffer; at 10 µM; 1 = no-compound wells, NADH background
Out of some 65,000 compounds screened, about 3,600 (5.5%) were called active.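 The calls were made as follows: active = at 10 µM, mean starting fluorescence two-fold or more over control wells; inactive = the rest.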 Only a selection was taken, and actives are over-represented in it overall.
Your reply should match one of these outcome classes. true (active), false (inactive)

* CCCCOCCCNC(=O)c1ccccc1OCC | false
* O=C(Nc1ncc2c(n1)CC(c1ccco1)CC2=O)c1ccc(Cl)cc1 (centres undefined) | false
* COc1cc2c(cc1NC(=O)CN1CCN(S(=O)(=O)c3ccc(F)cc3)CC1)oc1ccccc12 | true
* c1ccc(CSc2nnc(-c3ccco3)n2Cc2ccccc2)cc1 | false

Record request — test call for `COC(=O)C1=C(C)N(C)C(C)=C(C(=O)OC)C1c1cccc(Br)c1` false

Record request — test call for `COc1ccccc1CNC(=O)Cn1cc2c(n1)CCCC2` false

Record request — test call for `CC(=O)Oc1cc2c(C(=O)NCCN3CCOCC3)c(C)oc2c2ccccc12` false

Record request — test call for `O=C(CN1C(=O)CCC1=O)Nc1ccc(S(=O)(=O)N2CCOCC2)cc1` false
